- assayedSystem: Adenosine receptor A3 (Homo sapiens)
- experimentalDetails: Percent displacement of [125I]AB-MECA binding to human adenosine A3 receptor expressed in HEK 293 cells at 1 uM
- Format: cell-based
- runParameters: HEK293
Below, each entry is listed with its recorded Displacement.
Could you give me the number in %? Just the number is fine.

Solved cases (6 shown):
1) N#Cc1c(N)nc(SCCO)c(C#N)c1-c1ccc(C(F)(F)F)cc1 ... 0
2) N#Cc1c(N)nc(SCCO)c(C#N)c1-c1ccc(O)cc1 ... 0
3) N#Cc1c(N)nc(SCCO)c(C#N)c1-c1ccc(F)cc1 ... 0
4) N#Cc1c(N)nc(SCCO)c(C#N)c1-c1ccccc1 ... 26
5) N#Cc1c(N)nc(SCCO)c(C#N)c1-c1cccc(C(F)(F)F)c1 ... 49
6) N#Cc1c(N)nc(SCCO)c(C#N)c1-c1cccc(OC(F)(F)F)c1 ... 11

Retrieve Displacement measured for N#Cc1c(N)nc(SCCO)c(C#N)c1-c1cccc(OC(F)F)c1 and print it.
12

Give Displacement for N#Cc1c(N)nc(SCCO)c(C#N)c1-c1ccc(OC(F)F)cc1
23

Read off the recorded Displacement for COc1ccc(-c2c(C#N)c(N)nc(SCCO)c2C#N)cc1OC
0

Please supply the value of reported Displacement for the item N#Cc1c(N)nc(SCCO)c(C#N)c1-c1cccc(O)c1
16

State its Displacement for this compound: Cn1cnc2c(NC3CCCC3)ncnc21
15

Provide one value: measured Displacement of N#Cc1c(N)nc(SCCO)c(C#N)c1-c1cccc(F)c1
8
